pIC50: −log10 of the molar value.
# merged literature set: pIC50 with Protein-S-isoprenylcysteine O-methyltransferase (Homo sapiens)
# Sequence (O60725 whole entry): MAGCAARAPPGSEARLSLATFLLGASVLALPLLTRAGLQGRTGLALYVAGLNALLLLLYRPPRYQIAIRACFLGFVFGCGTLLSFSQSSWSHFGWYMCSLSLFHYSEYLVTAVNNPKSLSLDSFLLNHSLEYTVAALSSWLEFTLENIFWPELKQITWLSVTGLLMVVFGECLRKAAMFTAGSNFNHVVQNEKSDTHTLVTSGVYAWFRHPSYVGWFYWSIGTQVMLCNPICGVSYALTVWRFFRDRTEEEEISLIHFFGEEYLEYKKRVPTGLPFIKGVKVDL
// label = condition met if pIC50 is not less than 5, otherwise condition not met

Given smiles: NC(=O)Cc1cn(CCCOc2ccccc2)c2ccc(-c3cccc(F)c3)cc12
Class label: condition not met
--
Given smiles: Cc1ccc(-c2ccc3[nH]cc(CC(N)=O)c3c2)cc1
Class label: condition not met
--
Given smiles: CCCCCCn1cc(CC(N)=O)c2cc(-c3cccc(OCC)c3)ccc21
Class label: condition met
--
Given smiles: Cc1ccc(-c2ccc3c(c2)c(CC(N)=O)cn3Cc2cccc(C(F)(F)F)c2)cc1
Class label: condition met
--
Given smiles: CC(C)Cn1cc(CC(N)=O)c2cc(-c3cccc(F)c3)ccc21
Class label: condition met
--
Given smiles: Cc1cccc(-c2ccc3c(c2)c(CC(N)=O)cn3CCCOc2ccccc2)c1
Class label: condition not met
--
Given smiles: COc1ccccc1-c1ccc2c(c1)c(CC(N)=O)cn2Cc1cccc(C(F)(F)F)c1
Class label: condition met
--
Given smiles: CC(C)=CCC/C(C)=C/CC/C(C)=C/CSC[C@H](NS(=O)(=O)c1ccccc1)C(=O)O
Class label: condition not met
--
Given smiles: CCCCCCCCn1cc(CC(N)=O)c2cc(-c3ccccc3OC)ccc21
Class label: condition met
--
Given smiles: CCCCCCCCn1cc(CC(N)=O)c2cc(-c3ccc(F)c(Cl)c3)ccc21
Class label: condition met
--
Given smiles: CCOc1cccc(-c2ccc3c(c2)c(CC(N)=O)cn3CC(C)C)c1
Class label: condition met
--
Given smiles: CC(C)=CCC/C(C)=C/CC/C(C)=C/CSC[C@H](NS(=O)(=O)c1ccccc1Oc1ccccc1)C(=O)O
Class label: condition not met
--
Given smiles: NC(=O)Cc1c[nH]c2ccc(-c3ccc(F)c(Cl)c3)cc12
Class label: condition not met
--
Given smiles: CCCCCCCCn1cc(CC(N)=O)c2cc(-c3cccc(OCC)c3)ccc21
Class label: condition met
--
Given smiles: NC(=O)Cc1cn(CC2CC2)c2ccc(-c3cc(C(F)(F)F)cc(C(F)(F)F)c3)cc12
Class label: condition not met
--
Given smiles: COc1ccc(/C=C/C(=O)NCCc2cc(Br)c(OCCCN)c(Br)c2)cc1Br
Class label: condition not met
--
Given smiles: NC(=O)Cc1cn(Cc2ccc3ccccc3c2)c2ccc(-c3ccc(Oc4ccccc4)cc3)cc12
Class label: condition not met
--
Given smiles: NC(=O)Cc1cn(CC2CC2)c2ccc(-c3ccc(Oc4ccccc4)cc3)cc12
Class label: condition not met
--
Given smiles: CC(C)(C)c1ccc(Cn2cc(CC(N)=O)c3cc(-c4cc(C(F)(F)F)cc(C(F)(F)F)c4)ccc32)cc1
Class label: condition not met
--
Given smiles: CC(C)Cn1cc(CC(N)=O)c2cc(-c3cc(C(F)(F)F)cc(C(F)(F)F)c3)ccc21
Class label: condition not met
--
Given smiles: CC(C)=CCC/C(C)=C/CC/C(C)=C/CSC[C@H](NS(=O)(=O)c1ccc(F)cc1)C(=O)O
Class label: condition not met
--
Given smiles: CC(C)(C)c1ccc(Cn2cc(CC(N)=O)c3cc(-c4cccc(F)c4)ccc32)cc1
Class label: condition met
--
Given smiles: CCOc1cccc(-c2ccc3[nH]cc(CC(N)=O)c3c2)c1
Class label: condition not met
--
Given smiles: NC(=O)Cc1c[nH]c2ccc(-c3cc(C(F)(F)F)cc(C(F)(F)F)c3)cc12
Class label: condition not met
